- Tested on: MARIMO
- ASSAY_COMMENT: cell viability relative to vehicle control; higher = less cytotoxic;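 note: after 48 h exposure read by CellTiter-Glo luminescence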
- DETAILS: 10 µM; SRSF2 genotype: SRSF2 wt/wt
Structures can show the parent of a compound that is named as a salt.
Exercise: for every item that follows, state its recorded cell viability.
One number for each entry, in %.

The cases that follow already have their cell viability on record.
Nc1ncccc1-c1nc2ccc(-c3ccccc3)nc2n1-c1ccc(C2(N)CCC2)cc1 [Miransertib (ARQ 092)HCl] : 72.4
C[C@]12CC[C@@H]3c4ccc(OC(=O)c5ccccc5)cc4CC[C@H]3[C@@H]1CC[C@@H]2O [Estradiol Benzoate] : 35.6
O=C(NO)c1ccc(CC(=O)N(CCO)c2ccccc2)cc1 : 90.4
CCCC(CCC)C(=O)O [Divalproex sodium] : 111
OC[C@@H](O)[C@@H](O)[C@H](O)[C@H](O)CO : 116

Quick batch: cell viability for everything below.
1. CC(=C(CCOC(=O)C(C)C)SSC(CCOC(=O)C(C)C)=C(C)N(C=O)Cc1cnc(C)nc1N)N(C=O)Cc1cnc(C)nc1N (stereo in doubt)
2. O=c1c(-c2ccc(O)cc2)coc2cc(O[C@@H]3O[C@H](CO)[C@@H](O)[C@H](O)[C@H]3O)ccc12

Result:
[95.4, 104]

---

Exercise: for every item that follows, state its recorded cell viability.
- Test system: MARIMO
- ASSAY_COMMENT: cell viability relative to vehicle control; higher = less cytotoxic
- DETAILS: 10 µM; SRSF2 genotype: SRSF2 wt/wt
Report the figure along with its unit, number first.

The cases that follow already have their cell viability on record.
CC1(C)O[C@@H]2[C@@H](CO[C@@]3(COS(N)(=O)=O)OC(C)(C)O[C@@H]23)O1 [Topiramate] : 106%
Nc1nc(-c2nn(Cc3ccccc3F)c3ncccc23)ncc1C1CC1 : 101%
COc1ccc(-c2cc(=O)c3c(O)cc(O[C@@H]4O[C@H](CO[C@@H]5O[C@@H](C)[C@H](O)[C@@H](O)[C@H]5O)[C@@H](O)[C@H](O)[C@H]4O)cc3o2)cc1 : 101%

Consider now this further molecule.
Q: What does the data say about its cell viability? Entry: O=C(Cc1ccccc1)Nc1nnc(CCSCCc2nnc(NC(=O)Cc3ccccc3)s2)s1
Result: 72.4%

---

- System: MOLM14
- ASSAY_COMMENT: cell viability relative to vehicle control; higher = less cytotoxic
- DETAILS: 10 µM; SRSF2 genotype: SRSF2 wt/wt
Structures can show the parent of a compound that is named as a salt.
Exercise: for every item that follows, state its recorded cell viability.
One number for each entry, in %.

The cases that follow already have their cell viability on record.
OC[C@@H](O)CN1CCN(c2ccccc2)CC1 : 91.6
O=C(O)[C@H](O)c1ccccc1 [(R)-(-)-Mandelic acid] : 92.6
C=CC(=O)N1CCN(CCCn2c(=O)c(-c3c(Cl)c(OC)cc(OC)c3Cl)cc3cnc(NC)nc32)CC1 : 88.1
CN(C)CCCC1(c2ccc(F)cc2)OCc2cc(C#N)ccc21 (configuration not stated) : 101

Quick batch: cell viability for everything below.
1. CN(C)CC/C=C1/c2ccccc2COc2ccc(CC(=O)O)cc21 [Olopatadine hydrochloride (Opatanol)]
2. CC(=O)Nc1cccc(-n2c(=O)n(C3CC3)c(=O)c3c(Nc4ccc(I)cc4F)n(C)c(=O)c(C)c32)c1
3. COc1ccccc1OCCN

Result:
1. 104
2. 27.1
3. 107

---

- Tested on: OCI-AML2
- ASSAY_COMMENT: cell viability relative to vehicle control; higher = less cytotoxic
- DETAILS: 10 µM; SRSF2 genotype: P95H/wt
Where a name gives a salt, the structure may show the parent alone.
QUANTITY_KIND: cell viability (%)
Numbers only, in %.

COc1ccc(C(=O)O)c(O)c1 : 101
CN1CC[C@@H](NC(=O)Nc2ccc(C#N)cc2)C[C@@H]1c1nc2ccccc2[nH]1 : 98.1
COc1cc(-c2oc3cc(O)cc(O)c3c(=O)c2OC2OC(COC3OC(C)C(O)C(O)C3O)C(O)C(O)C2OC2OC(C)C(O)C(O)C2O)ccc1O (configuration not stated) [Typhaneoside] : 110
CCN(CC)c1ccc2cc(C(=O)O)c(=O)oc2c1 : 100
COc1cc(O)c2c(c1)C(=O)c1cc(C)cc(O)c1C2=O : 92.5

Quick batch: cell viability for everything below.
1. Cc1cc(OCCCS(C)(=O)=O)cc(C)c1-c1cccc(COc2ccc3c(c2)OC[C@H]3CC(=O)O)c1
2. CC(C)C1=CC2=CC[C@@H]3[C@](C)(CCC[C@@]3(C)C(=O)O)[C@H]2CC1

Result:
1. 85
2. 90.9

Quick batch: cell viability for everything below.
1. Cc1cc(Nc2cc(Cl)nc(Oc3ccc([N+](=O)[O-])cc3)n2)n[nH]1
2. CC(C)(CO)C(O)C(=O)NCCC(=O)O [Calcium D-Panthotenate]
3. CC[C@H]1OC(=O)[C@H](C)[C@@H](O[C@H]2C[C@@](C)(OC)[C@@H](O)[C@H](C)O2)[C@H](C)[C@@H](O[C@@H]2O[C@H](C)C[C@H](N(C)C)[C@H]2O)[C@](C)(O)C[C@@H](C)CN(C)[C@H](C)[C@@H](O)[C@]1(C)O
4. Cn1cncc1[C@@](N)(c1ccc(Cl)cc1)c1ccc2c(c1)c(-c1cccc(Cl)c1)cc(=O)n2C [Tipifarnib (Zarnestra)]
5. C[C@@H](NC(=O)c1ncnc(N)c1Cl)c1ncc(C(=O)Nc2cc(C(F)(F)F)c(Cl)cn2)s1

Result:
1. 50
2. 95.4
3. 75.7
4. 19.9
5. 66.9

Quick batch: cell viability for everything below.
1. O=C1c2ccccc2C(=O)c2c1ccc(O)c2O
2. COc1cc2oc(=O)ccc2cc1O
3. Clc1ccc(COC(Cn2ccnc2)c2ccc(Cl)cc2Cl)cc1 (configuration not stated) [Econazole nitrate (Spectazole)]
4. Cc1c(O)c(=O)ccn1C

Result:
1: 101; 2: 97.1; 3: 57.8; 4: 90.5

Quick batch: cell viability for everything below.
1. COc1ccc(C2CNC(=O)C2)cc1OC1CCCC1 (stereo not drawn) [S-(+)-Rolipram]
2. CCCOC(=O)c1ccc(O)cc1
3. COc1ccc(-n2c(C)c([N+](=O)[O-])c3ccc(O)cc32)cc1
4. CC(C)c1ccc(C=O)cc1
5. CN1c2ccccc2C(=O)Nc2cnc(Nc3ccc(N4CCC(O)CC4)cc3)nc21
6. N#Cc1ccc(-c2c(-c3ncn[nH]3)sc(N3CCOCC3)c2C#N)c(F)c1
7. CC(CCc1ccccc1)NCC(=O)c1ccc(O)c(C(N)=O)c1 (configuration not stated) [Labetalone hydrochloride]
8. CC(S)C(=O)NCC(=O)O (configuration not stated)

Result:
96.7
95.6
73.1
89.9
51
9.07
99.7
100

---

Exercise: for every item that follows, state its recorded cell viability.
- Tested on: OCI-AML2
- ASSAY_COMMENT: cell viability relative to vehicle control; higher = less cytotoxic
- DETAILS: 10 µM; SRSF2 genotype: wt/wt
Structures can show the parent of a compound that is named as a salt.
Numbers only, in %.

The cases that follow already have their cell viability on record.
CN(C)c1ccc2nc3ccc(=[N+](C)C)cc-3sc2c1 : 7.07
Cc1cc(=O)[nH]c(=S)[nH]1 : 104
CC(C)[C@H](NC(=O)[C@H](CC(=O)O)NC(=O)[C@H](CCCCN)NC(=O)[C@@H](N)CCCN=C(N)N)C(=O)N[C@@H](Cc1ccc(O)cc1)C(=O)O : 89.5
CCN(CC)Cc1ccc2cc(COC(=O)Nc3ccc(C(=O)NO)cc3)ccc2c1 : 3.52
O=C(/C=C/c1ccccc1)OCc1ccccc1 [Benzyl cinnamate] : 93.1

Quick batch: cell viability for everything below.
1. NC[C@H](O)c1ccc(O)c(O)c1 [Noradrenaline bitartrate monohydrate (Levoph]
2. NC(CO)C(=O)NNCc1ccc(O)c(O)c1O (stereo not drawn) [Benserazide HCl]
3. CCC(CC)CC1(C(=O)Nc2ccccc2SC(=O)C(C)C)CCCCC1
4. CC1(C)O[C@H]1COc1c2ccoc2cc2oc(=O)ccc12
5. C=C(C)C1CC=C(C=NO)CC1 (stereo not drawn)

Result:
[103, 99.5, 85.5, 93.4, 112]

---

- System: K562
- ASSAY_COMMENT: cell viability relative to vehicle control; higher = less cytotoxic
- DETAILS: 10 µM; SRSF2 genotype: SRSF2 wt/wt
Exercise: for every item that follows, state its recorded cell viability.
Answers are plain numbers, in %.

The cases that follow already have their cell viability on record.
C[C@]12CC[C@@H]3c4ccc(OC(=O)c5ccccc5)cc4CC[C@H]3[C@@H]1CC[C@@H]2O [Estradiol Benzoate] : 77.2
C/C=C(\C)C(=O)OC1c2c(ccc3ccc(=O)oc23)OC(C)(C)C1OC(=O)/C(C)=C/C (centres undefined) : 89.7
CCc1nc(-c2cccc(C)c2)c(-c2ccnc(NC(=O)c3ccccc3)c2)s1 : 66.3
CC(C)[C@H]1CC[C@H](C(=O)N[C@H](Cc2ccccc2)C(=O)O)CC1 [Nateglinide (Starlix)] : 98.8
CC(C)(O)C1CCC(C)(C2C(O)CC3(C)C4CC(OC5OC(CO)C(O)C(O)C5O)C5C(C)(C)C(OC6OCC(O)C(O)C6O)CCC56CC46CCC23C)O1 (centres undefined) [Astragaloside A] : 99.1
C[N+]1(C)CCCC1C(=O)[O-] (centres undefined) [Stachydrine] : 105
CNc1cccc(CCOc2ccc3c(c2)CN(CC(F)(F)F)C(=O)[C@H](CC(=O)O)C3)n1 : 91.5
Cc1[nH]c2ccccc2c1C1=C(NCCc2ccc(F)cc2)C(=O)N(C)C1=O : 102

Quick batch: cell viability for everything below.
1. COc1cc([C@H]2OC[C@H]3[C@@H]2CO[C@@H]3c2ccc(O[C@@H]3O[C@H](CO)[C@@H](O)[C@H](O)[C@H]3O)c(OC)c2)ccc1O[C@@H]1O[C@H](CO)[C@@H](O)[C@H](O)[C@H]1O [Pinoresinol diglucoside]
2. O=C(C=Cc1cccnc1)c1ccncc1
3. O=C1C=C2C=C[C@@H](O)[C@H](O)[C@H]2O1 [Griffonilide]
4. CCCCCC1C(=O)CCC1CC(=O)OCCC (centres undefined) [Prohydrojasmon]
5. Cc1c(F)cc(C(=O)NC2CC2)cc1-c1ccc(C(=O)NCC(C)(C)C)cn1
6. COc1ccc(-c2cnc3c(-c4cccc5ncccc45)cnn3c2)cc1

Result:
1. 101
2. 77.7
3. 96.4
4. 109
5. 97.8
6. 92.7
